Reference source for all entries: patent US5420289A

molecular target: human synovial fluid PLA2 (Homo sapiens, UniProt P14555); test: in vitro isolated phospholipase A2 assay, human synovial fluid PLA2 (Example 74); format: biochemical; set-up: dose or concentration left out as unconfirmed; conditions: read-out: % Inhibition, HSF (human synovial fluid)
test.readout: inhibition (%)

[
  {
    "compound": "Cc1c(CC(=O)O)c2cc(OCc3nc4ccccc4s3)ccc2n1Cc1ccccc1",
    "experimental.value": 88
  },
  {
    "compound": "CCOC(=O)Cc1c(C)n(Cc2ccccc2)c2ccc(OCc3nc4ccccc4s3)cc12",
    "experimental.value": 2
  },
  {
    "compound": "CC1=C(CC(=O)O)c2cc(F)ccc2C1=Cc1ccc(OCc2ccc3ccccc3n2)cc1",
    "experimental.value": 48
  },
  {
    "compound": "Cc1c(CC(=O)NOCc2ccccc2)c2cc(OCc3nc4ccccc4s3)ccc2n1Cc1ccc(Cl)cc1",
    "experimental.value": 54
  },
  {
    "compound": "Cc1c(CC(=O)O)c2cc(OCc3ccc4ccccc4n3)ccc2n1Cc1ccc(Cl)cc1 [Example 16, hydrate]",
    "experimental.value": 46
  },
  {
    "compound": "O=C(O)Cc1cn(Cc2ccc(Cl)cc2)c2ccc(OCc3ccc4ccccc4n3)cc12",
    "experimental.value": 38
  },
  {
    "compound": "CSc1ccc(Cn2c(C)c(CC(=O)O)c3cc(OCc4csc(-c5ccccc5)n4)ccc32)cc1",
    "experimental.value": 43
  },
  {
    "compound": "Cc1c(CC(=O)O)c2cc(OCc3coc(-c4ccccc4)n3)ccc2n1Cc1ccccc1 [Example 71, hemihydrate]",
    "experimental.value": 91
  },
  {
    "compound": "CONC(=O)Cc1c(C)n(Cc2ccc(Cl)cc2)c2ccc(OCc3nc4ccccc4s3)cc12 [Example 47, hemihydrate]",
    "experimental.value": 2
  },
  {
    "compound": "Cc1c(CC(=O)O)c2cc(OCc3ccc4ccccc4n3)ccc2n1Cc1ccc(C(=O)O)cc1",
    "experimental.value": 45
  },
  {
    "compound": "CCOC(=O)Cc1c(C)n(Cc2cccc(OC)c2)c2ccc(OCc3csc(-c4ccccc4)n3)cc12",
    "experimental.value": 6
  },
  {
    "compound": "CCOC(=O)Cc1c(C)n(Cc2ccc(Cl)cc2)c2ccc(OCc3csc(-c4ccc(Cl)cc4)n3)cc12",
    "experimental.value": 0
  },
  {
    "compound": "CCOC(=O)Cc1c(C)n(Cc2ccc3ccccc3c2)c2ccc(OCc3csc(-c4ccccc4)n3)cc12",
    "experimental.value": 6
  },
  {
    "compound": "Cc1c(CC(=O)NO)c2cc(OCc3nc4ccccc4s3)ccc2n1Cc1ccc(Cl)cc1",
    "experimental.value": 48
  },
  {
    "compound": "Cc1c(CC(=O)O)c2cc(OCc3ccccc3)ccc2n1Cc1ccc(Cl)cc1",
    "experimental.value": 28
  },
  {
    "compound": "Cc1c(CC(=O)O)c2cc(OCc3ccc4ccccc4n3)ccc2n1Cc1ccc(OCc2ccc3ccccc3n2)cc1 [Example 28, hemihydrate]",
    "experimental.value": 41
  }
]

###

Target: human synovial fluid PLA2 (Homo sapiens)
Sequence (P14555 21-144): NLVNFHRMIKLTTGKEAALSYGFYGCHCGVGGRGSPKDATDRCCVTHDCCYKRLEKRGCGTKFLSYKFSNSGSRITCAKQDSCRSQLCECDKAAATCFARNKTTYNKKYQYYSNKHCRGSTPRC
Test: in vitro isolated phospholipase A2 assay, human synovial fluid PLA2 (Example 74)
Assay type: biochemical
Parameters: dose or concentration left out as unconfirmed
Conditions: read-out: % Inhibition, HSF (human synovial fluid)
test.readout: inhibition (%)

[
  {
    "molecule": "Cc1c(CC(=O)NS(=O)(=O)c2ccccc2)c2cc(OCc3ccc4ccccc4n3)ccc2n1Cc1ccc(Cl)cc1",
    "target.of.assay": "human synovial fluid PLA2 (Homo sapiens)",
    "test.readout": "inhibition",
    "experimental.value": 64
  },
  {
    "molecule": "CCOC(=O)Cc1c(C)n(Cc2ccc(SC)cc2)c2ccc(OCc3nc4ccccc4s3)cc12",
    "target.of.assay": "human synovial fluid PLA2 (Homo sapiens)",
    "test.readout": "inhibition",
    "experimental.value": 1
  },
  {
    "molecule": "COc1cccc(Cn2c(C)c(CC(=O)O)c3cc(OCc4csc(-c5ccccc5)n4)ccc32)c1",
    "target.of.assay": "human synovial fluid PLA2 (Homo sapiens)",
    "test.readout": "inhibition",
    "experimental.value": 84
  },
  {
    "molecule": "Cc1c(CCO)c2cc(OCc3csc(-c4ccccc4)n3)ccc2n1Cc1ccccc1",
    "target.of.assay": "human synovial fluid PLA2 (Homo sapiens)",
    "test.readout": "inhibition",
    "experimental.value": 4
  },
  {
    "molecule": "Cc1c(CC(=O)O)c2cc(OCc3ccc4ccccc4n3)ccc2n1C(=O)c1ccc(Cl)cc1 [Example 17, hydrate]",
    "target.of.assay": "human synovial fluid PLA2 (Homo sapiens)",
    "test.readout": "inhibition",
    "experimental.value": 58
  }
]
